system: Fibroblast; experiment: Multiplex assay against human fibroblast; format: toxicity, cell-based; conditions: 12 h, 10 µM, compound concentration 10 uM, replicate 2

{"COMPOUND": "COc1cc(C(=O)N(CCCc2ccccc2)Cc2ccc(CC(=O)O)cc2)cc(OC)c1C", "UNIT_ABBREVIATION": "%", "Population Normal (%)": 95}
{"COMPOUND": "CC[C@H]1OC(=O)[C@H](C)[C@@H](O[C@H]2C[C@@](C)(OC)[C@@H](O)[C@H](C)O2)[C@H](C)[C@@H](O[C@@H]2O[C@H](C)C[C@H](N(C)C)[C@H]2O)[C@@]2(C)CC(C)=C(O2)[C@H](C)[C@@H](O)[C@]1(C)O", "UNIT_ABBREVIATION": "%", "Population Normal (%)": 95}
{"COMPOUND": "O=C1COc2nccc(-c3ccccc3F)c2CN1Cc1cc(C(F)(F)F)cc(C(F)(F)F)c1", "UNIT_ABBREVIATION": "%", "Population Normal (%)": 91}
{"COMPOUND": "CC(=O)O[C@H]1C(=O)[C@@]2(C)[C@H]([C@H](OC(=O)c3ccccc3)[C@]3(O)C[C@H](OC(=O)[C@H](O)[C@@H](NC(=O)c4ccccc4)c4ccccc4)C(C)=C1C3(C)C)[C@]1(OC(C)=O)CO[C@@H]1C[C@@H]2O [PACLITAXEL]", "UNIT_ABBREVIATION": "%", "Population Normal (%)": 98}

----------
tested on: HEK-293T; experiment: Multiplex assay against HEK293T; type: toxicity, cell-based; conditions: human, 12 h, 1 µM, compound concentration 1 uM, replicate 1
Classification field: enter 1 (yes) for Total Cell Count values not below 400, 0 (no) for values below it.

{"COMPOUND": "Cc1ccc(F)cc1C(=O)Nc1ccc(C(=O)N2Cc3cccn3Cc3ccccc32)c(Cl)c1", "SYSTEM_TESTED": "HEK-293T", "CATEGORY_LABEL": "1 (yes)"}
{"COMPOUND": "CCCn1c(=O)c2[nH]c(C3CCCC3)nc2n(CCC)c1=O", "SYSTEM_TESTED": "HEK-293T", "CATEGORY_LABEL": "1 (yes)"}
{"COMPOUND": "N#Cc1c(N)nc(SCc2csc(-c3ccc(Cl)cc3)n2)c(C#N)c1-c1ccc(OCCO)cc1", "SYSTEM_TESTED": "HEK-293T", "CATEGORY_LABEL": "0 (no)"}
{"COMPOUND": "COc1ccccc1N1CCN(CCCCNC(=O)c2ccc3ccccc3c2)CC1.Cl", "SYSTEM_TESTED": "HEK-293T", "CATEGORY_LABEL": "1 (yes)"}
{"COMPOUND": "O=C(O)c1cc2ccccc2c(Cc2c(O)c(C(=O)O)cc3ccccc23)c1O", "SYSTEM_TESTED": "HEK-293T", "CATEGORY_LABEL": "1 (yes)"}
{"COMPOUND": "C[C@@H]1C[C@H]2[C@@H]3CCC4=CC(=O)C=C[C@]4(C)[C@@]3(F)[C@@H](O)C[C@]2(C)[C@@]1(O)C(=O)CO", "SYSTEM_TESTED": "HEK-293T", "CATEGORY_LABEL": "1 (yes)"}
{"COMPOUND": "Cc1ccccc1C(=O)Nc1ccc(C(=O)N2CCCC(N(C)C)c3ccccc32)cc1.Cl (configuration not stated)", "SYSTEM_TESTED": "HEK-293T", "CATEGORY_LABEL": "1 (yes)"}
{"COMPOUND": "CC(C)(C)c1ccc(S(=O)(=O)Nc2ccc(Cl)cc2C(=O)c2cc[n+]([O-])cc2)cc1", "SYSTEM_TESTED": "HEK-293T", "CATEGORY_LABEL": "1 (yes)"}
{"COMPOUND": "COc1cc(NC(=O)CCN2CCC(OC(=O)Nc3ccccc3-c3ccccc3)CC2)c(Cl)cc1CNC[C@H](O)c1ccc(O)c2[nH]c(=O)ccc12", "SYSTEM_TESTED": "HEK-293T", "CATEGORY_LABEL": "1 (yes)"}
{"COMPOUND": "CN(C)CCCc1cc(C(=O)Nc2ccc(-c3ccncc3)cc2)ccc1O.Cl.Cl", "SYSTEM_TESTED": "HEK-293T", "CATEGORY_LABEL": "0 (no)"}
{"COMPOUND": "COc1ccc2c(c1)C(C(=O)N(Cc1ccc(N(C)C)cc1)c1ccc(C(C)C)cc1)CCC2.Cl (configuration not stated)", "SYSTEM_TESTED": "HEK-293T", "CATEGORY_LABEL": "1 (yes)"}

----------
Reported Population Tubulin-Different-Phenotype (%) values are given for each entry in this list.
tested on: Fibroblast; assay: Multiplex assay against human fibroblast; type: toxicity, cell-based; settings: 48 h, 10 µM, compound concentration 10 uM, replicate 1
RESULT_TYPE: Population Tubulin-Different-Phenotype (%)

{"COMPOUND": "CSc1ccccc1N1CCN(CCCCCC(=O)NC2CCCc3ccccc32)CC1.Cl (stereo not drawn)", "VAL": 97}
{"COMPOUND": "Cl.Clc1ccc2nsnc2c1NC1=NCCN1 [TIZANIDINE HYDROCHLORIDE]", "VAL": 26}
{"COMPOUND": "COc1cc(NC(=O)CCN2CCC(OC(=O)Nc3ccccc3-c3ccccc3)CC2)c(Cl)cc1CNC[C@H](O)c1ccc(O)c2[nH]c(=O)ccc12 [BATEFENTEROL]", "VAL": 77}
{"COMPOUND": "CC(C)(C)c1ccc(S(=O)(=O)Nc2ccc(Cl)cc2C(=O)c2cc[n+]([O-])cc2)cc1 [VERCIRNON]", "VAL": 38}
{"COMPOUND": "C[C@H](NC(=O)c1c(C(F)F)nn(C)c1Oc1cccc(C(F)(F)F)c1)c1ccc(C(=O)O)cc1 [PALUPIPRANT]", "VAL": 46}
{"COMPOUND": "Cc1ccc(F)cc1C(=O)Nc1ccc(C(=O)N2Cc3cccn3Cc3ccccc32)c(Cl)c1 [LIXIVAPTAN]", "VAL": 69}
{"COMPOUND": "CC1(COc2ccc3c(c2)ncn3-c2ccc3cccc(N4CCC(N)CC4)c3n2)COC1 [CRENOLANIB]", "VAL": 23}
{"COMPOUND": "O=C1COc2nccc(-c3ccccc3F)c2CN1Cc1cc(C(F)(F)F)cc(C(F)(F)F)c1", "VAL": 62}

----------
tested on: HEK-293T; assay: Multiplex assay against HEK293T; assay type: toxicity, cell-based; conditions: human, 48 h, 1 µM, compound concentration 1 uM, replicate 2
Reported Total Cell Count values are given for each entry in this list.
RESULT_TYPE: Total Cell Count

{"MOLECULE": "CN(C)CCCc1cc(C(=O)Nc2ccc(-c3ccncc3)cc2)ccc1O.Cl.Cl", "VAL": 596}
{"MOLECULE": "N[C@@]1(C(=O)O)CO[C@H]2[C@H](C(=O)O)[C@H]21", "VAL": 611}
{"MOLECULE": "C[C@@H]1C[C@H]2[C@@H]3CCC4=CC(=O)C=C[C@]4(C)[C@@]3(F)[C@@H](O)C[C@]2(C)[C@@]1(O)C(=O)CO", "VAL": 685}
{"MOLECULE": "COc1cc(C(=O)N(CCCc2ccccc2)Cc2ccc(CC(=O)O)cc2)cc(OC)c1C", "VAL": 753}
{"MOLECULE": "CN(C)c1ccnc2sc3c(=O)n(N4CCCCCC4)cnc3c12", "VAL": 663}
{"MOLECULE": "Oc1c(CN2CCN(c3ccccn3)CC2)cc(Cl)c2cccnc12", "VAL": 518}
{"MOLECULE": "Cc1ccc(/C(=C\\CN2CCCC2)c2ccccn2)cc1", "VAL": 837}
{"MOLECULE": "CCNC1(C(N)=O)CCN(c2ncnc3c2nc(-c2ccccc2Cl)n3-c2ccc(Cl)cc2)CC1", "VAL": 604}
{"MOLECULE": "O=C(NCC(=O)N1CC[C@H](N[C@H]2CC[C@@](O)(c3ccc(-c4ncccn4)cn3)CC2)C1)c1cccc(C(F)(F)F)c1", "VAL": 907}
{"MOLECULE": "c1cc(OCCCN2CCCCC2)ccc1CN1CCCCC1", "VAL": 746}
{"MOLECULE": "CSCC[C@H](NC=O)C(=O)N[C@@H](CC(C)C)C(=O)N[C@@H](Cc1ccccc1)C(=O)O", "VAL": 838}
{"MOLECULE": "C[C@H]1[C@H]2CC[C@H]3[C@@H]4CC=C5C[C@@H](N(C)C)CC[C@]5(C)[C@H]4CC[C@]23CN1C", "VAL": 630}
{"MOLECULE": "Cc1ccccc1C(=O)Nc1ccc(C(=O)N2CCCC(N(C)C)c3ccccc32)cc1.Cl (stereo not drawn)", "VAL": 722}
{"MOLECULE": "Cl.Clc1ccc2nsnc2c1NC1=NCCN1 [TIZANIDINE HYDROCHLORIDE]", "VAL": 661}
{"MOLECULE": "Cc1ccc(C(C)(O)c2nc3ccccc3s2)c(C)c1 (stereo not drawn)", "VAL": 621}
{"MOLECULE": "O=C(NCCO)c1cccc(-c2cc(Nc3ccc(OC(F)(F)F)cc3)ncn2)c1", "VAL": 476}
{"MOLECULE": "COc1c(C)cc(NC(=O)c2nn(Cc3ccc(F)cc3)c3c2CN(C(=O)c2ccc[nH]2)C[C@]3(C)C(N)=O)cc1C", "VAL": 652}
{"MOLECULE": "COc1ccccc1N1CCN(CCCCNC(=O)c2ccc3ccccc3c2)CC1.Cl", "VAL": 635}
